assay name: qHTS assay for environmental chemicals that activate the Aryl hydrocarbon Receptor (AhR) signaling pathway (AID 651777); note: % of control where 0% means no effect; nearly all actives have a fitted effect of over 15% in size
assay conditions: 1A2-DRE human hepatoma cells, luciferase, 24 h; stronger effect = higher value
Records with an inconclusive call do not appear.
Quick reference: activation of the listed items.
The reply should contain only the number, in %.

>>> test_result("COC(=O)c1ccc(O)cc1")
7.25
>>> test_result("FC(F)(F)C(Cl)Br (stereo unspecified)")
0.539
>>> test_result("O=C1c2cccc(O)c2C(=O)c2c(O)cccc21")
5.57
>>> test_result("CCCCCCCCCCCCCCCCCCO")
0.518
>>> test_result("OC[C@@H](O)[C@@H](O)[C@H](O)[C@H](O)CO")
-0.115

Query Cc1c(C(=O)NCCO)[n+](=O)c2ccccc2n1[O-] yields activation of -0.247

Query Cc1cc(=O)[nH]c(=S)[nH]1 yields activation of -0.745

Lookup result for COc1ccc(O)cc1 ; measured activation: 0.2

Summary for this compound, Cc1cccc(Nc2ccccc2C(=O)O)c1C : activation is 2.22

For record CC(=O)Nc1cccc(O)c1 the listed activation is 2.7

activation recorded for this compound, Cc1ccc(C(C)C)c(O)c1 , is 0.149

* * *

System: 3D7
assay name: qHTS profiling for inhibitors of Plasmodium falciparum proliferation (AID 504749);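 note: 0% = DMSO vehicle and full inhibition = artemisinin control; nearly all actives have a fitted effect of over 60% in size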
assay conditions: P. falciparum in erythrocytes, SYBR Green DNA, 72 h; series mostly up to 28.7 µM
Records with an inconclusive call do not appear. Activity calls are given as the source filed them. Calls follow the shape of the dose curve; as a rule, active = well fitted inhibition curve with a large enough effect; inconclusive = small, poorly fitted or top-dose-only effect; inactive = flat fitted curve, though single readings scatter.
Choose one outcome from this list and give only that: 1 (yes) (active), 0 (no) (inactive)

Solved cases (3 shown):
>>> assigned_category("COC(=O)c1ccc(O)cc1")
"0 (no)"
>>> assigned_category("CC(N)CCCC(C)(C)O (stereo not drawn)")
"0 (no)"
>>> assigned_category("Cc1cccc(C)c1NC(=O)CC12CCCN1CCC2")
"0 (no)"

Lab log entry: O=C(Cn1ccnc1[N+](=O)[O-])NCc1ccccc1 — outcome as called in the assay?
0 (no)

Called result for CC(CN(C)C)C(C)(O)Cc1ccc(Cl)cc1 (stereo not drawn)
0 (no)

Tell me the assay call for O=C(O)c1ccccc1OP(=O)(O)O please.
0 (no)

* * *

assay name: qHTS assay for small molecule agonists of retinoid X receptor alpha signaling (AID 588544)
assay conditions: HEK293T RXRa-UAS-bla, beta-lactamase reporter, 18 h; 530 nm emission
Results filed as inconclusive are left out.
Measured max response by item
Show the value, then the unit it is measured in.

>>> test_result("CCCCCCCCCCCCCCCCCCO")
"-0.452%"
>>> test_result("CC(=O)NS(=O)(=O)c1ccc(N)cc1")
"-19.7%"
>>> test_result("CCCC(O)C(CC)CO (stereo unspecified)")
"-0.667%"
>>> test_result("CC[N+](CC)(CC(=O)Nc1c(C)cccc1C)Cc1ccccc1")
"-1.28%"
>>> test_result("O=C1C(c2[nH]c3ccccc3c2O)=Nc2ccccc21")
"16.9%"
>>> test_result("Cc1cc(=O)[nH]c(=S)[nH]1")
"-2.22%"
>>> test_result("CCCCCCCC(=O)OCC(COC(=O)CCCCCCC)OC(=O)CCCCCCC")
"-2.18%"
>>> test_result("CC(C)=CCC/C(C)=C/CO")
"-9.95%"
>>> test_result("Cc1ccc(C(C)C)c(O)c1")
"-0.0487%"
>>> test_result("CC(=O)Nc1ccccc1")
"-17.4%"

Form: compound = O=C(OOC(=O)c1ccccc1)c1ccccc1 ; max response = -15.8%
